From: paper PMC6198128

test system: HSC-3 (human oral squamous cell carcinoma); test: Alamar blue cytotoxicity assay, HSC-3; format: cell-based; settings: read-out: IC50 in µM; HSC-3, alamar blue, 72 h
measured-parameter: IC50 (µM)

INSERT INTO results (smi, recorded_measurement) VALUES
  ('O=C1[O][Pt]2([NH][C@@H]3CCCC[C@H]3[NH]2)[O]C1=O', 3.1);

###

Some compounds, each annotated with its measured IC50.
tested on: PBMC (human peripheral blood mononuclear cells); experiment: Alamar blue cytotoxicity assay, PBMC; format: cell-based; conditions: Homo sapiens, PBMC, 72 h, read-out: IC50 in µM
measured-parameter: IC50 (µM)

INSERT INTO measurements (smi, measured_parameter, value_units, recorded_measurement) VALUES
  ('COc1cccc2c1C(=O)c1c(O)c3c(c(O)c1C2=O)C[C@@](O)(C(=O)CO)C[C@@H]3O[C@H]1C[C@H](N)[C@H](O)[C@H](C)O1', 'IC50', 'µM', 5.1),
  ('COc1cc(/C=C/C(=O)N2CCC=CC2=O)cc(OC)c1OC', 'IC50', 'µM', 34.2);
